Target of assay: wild type human growth hormone, P01241
Sequence (P01241 27-217): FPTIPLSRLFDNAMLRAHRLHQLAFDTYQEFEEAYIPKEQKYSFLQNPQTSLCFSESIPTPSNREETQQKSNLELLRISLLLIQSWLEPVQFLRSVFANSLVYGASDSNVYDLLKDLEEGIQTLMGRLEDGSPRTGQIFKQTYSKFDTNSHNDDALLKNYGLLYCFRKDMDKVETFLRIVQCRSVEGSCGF
Decision: hGH conv. rate (%) >= 40% yields yes, all other cases yield no.

Example cases with answers are listed next.
AlaPro-mTGase from S. mobaraensis (protein) APDSDDRVTPPAEPLDRMPDPYRPSYGRAETVVNNYIRKWQQVYSHRDGRKQQMTEEQREWLSYGCVGVTWVNSGQYPTNRLAFASFDEDRFKNELKNGRPRSGETRAEFEGRVAKESFDEEKGFQRAREVASVMNRALENAHDESAYLDNLKKELANGNDALRNEDARSPFYSALRNTPSFKERNGGNHDPSRMKAVIYSKHFWSGQDRSSSADKRKYGDPDAFRPAPGTGLVDMSRDRNIPRSPTSPGEGFVNFDYGWFGAQTEADADKTVWTHGNHYHAPNGSLGAMHVYESKFRNWSEGYSDFDRGAYVITFIPKSWNTAPDKVKQGWP    no
GlyPro-mTGase from S. ladakanum (protein) GPDSDERVTPPAEPLDRMPDPYRPSYGRAETIVNNYIRKWQQVYSHRDGRKQQMTEEQREWLSYGCVGVTWVNSGQYPTNRLAFAFFDEDKYKNELKNGRPRSGETRAEFEGRVAKDSFDEAKGFQRARDVASVMNKALENAHDEGAYLDNLKKELANGNDALRNEDARSPFYSALRNTPSFKDRNGGNHDPSKMKAVIYSKHFWSGQDRSGSSDKRKYGDPEAFRPDRGTGLVDMSRDRNIPRSPTSPGESFVNFDYGWFGAQTEADADKTVWTHGNHYHAPNGSLGAMHVYESKFRNWSDGYSDFDRGAYVVTFVPKSWNTAPDKVKQGWP    yes
GlyPro-mTGase_Y75N from S. ladakanum (protein) GPDSDERVTPPAEPLDRMPDPYRPSYGRAETIVNNYIRKWQQVYSHRDGRKQQMTEEQREWLSYGCVGVTWVNSGQNPTNRLAFAFFDEDKYKNELKNGRPRSGETRAEFEGRVAKDSFDEAKGFQRARDVASVMNKALENAHDEGAYLDNLKKELANGNDALRNEDARSPFYSALRNTPSFKDRNGGNHDPSKMKAVIYSKHFWSGQDRSGSSDKRKYGDPEAFRPDRGTGLVDMSRDRNIPRSPTSPGESFVNFDYGWFGAQTEADADKTVWTHGNHYHAPNGSLGAMHVYESKFRNWSDGYSDFDRGAYVVTFVPKSWNTAPDKVKQGWP    yes
GlyPro-mTGase_Y62H_Y75N from S. ladakanum (protein) GPDSDERVTPPAEPLDRMPDPYRPSYGRAETIVNNYIRKWQQVYSHRDGRKQQMTEEQREWLSHGCVGVTWVNSGQNPTNRLAFAFFDEDKYKNELKNGRPRSGETRAEFEGRVAKDSFDEAKGFQRARDVASVMNKALENAHDEGAYLDNLKKELANGNDALRNEDARSPFYSALRNTPSFKDRNGGNHDPSKMKAVIYSKHFWSGQDRSGSSDKRKYGDPEAFRPDRGTGLVDMSRDRNIPRSPTSPGESFVNFDYGWFGAQTEADADKTVWTHGNHYHAPNGSLGAMHVYESKFRNWSDGYSDFDRGAYVVTFVPKSWNTAPDKVKQGWP    no

Check if hGH conv. rate (%) >= 40% (inclusive). Item: GlyPro-mTGase_Y62H_Y75F from S. ladakanum (protein) GPDSDERVTPPAEPLDRMPDPYRPSYGRAETIVNNYIRKWQQVYSHRDGRKQQMTEEQREWLSHGCVGVTWVNSGQFPTNRLAFAFFDEDKYKNELKNGRPRSGETRAEFEGRVAKDSFDEAKGFQRARDVASVMNKALENAHDEGAYLDNLKKELANGNDALRNEDARSPFYSALRNTPSFKDRNGGNHDPSKMKAVIYSKHFWSGQDRSGSSDKRKYGDPEAFRPDRGTGLVDMSRDRNIPRSPTSPGESFVNFDYGWFGAQTEADADKTVWTHGNHYHAPNGSLGAMHVYESKFRNWSDGYSDFDRGAYVVTFVPKSWNTAPDKVTQGWP
yes
